Would you kindly list binding signal for each of these sequences?
Target: MAX:MAX (p21) (human, UniProt P61244-2 1-151)
Sequence (P61244 other isoform, or with tags, fused parts or gaps): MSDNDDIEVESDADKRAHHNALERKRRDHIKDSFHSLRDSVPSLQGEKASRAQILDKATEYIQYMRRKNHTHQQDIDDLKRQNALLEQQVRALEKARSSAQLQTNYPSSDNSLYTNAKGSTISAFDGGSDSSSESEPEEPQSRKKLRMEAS
Assay: protein-binding microarray (anti-MAX antibody); PBM: 15 mM Tris-HCl pH 7.5, 100 mM KCl, 0.075% NP40, 7.5 mM beta-mercaptoethanol, 375 ng/ul BSA, 8 ng/ul poly(dA-dT):(dA-dT), 550 ng complex, 60 min, room tempe; high values mean tight binding
Conditions: protein: recombinant; tags: 6xHis; chain copies: 2; label: 3' end of printed strand (linker) attached to glass slide; dsDNA, one strand shown
Over roughly 4,500 sequences, “log2 normalized fluorescence” has its median near -0.34; the highest 2% begin near 3.3. The sample holds the highest values, similar sequences and a random draw of the others, so the mix is not that of the screen.

Some solved cases for reference:
| macromolecule sequence | result |
| --- | --- |
| CCGGCTGACACTACGTATTAATAGCTAAGATTACTATATCGACG | -0.11 log2 normalized fluorescence |
| CCGGCTGAGGTCTTGTATTAATAGCTAAGATTACTATATCGACG | -0.72 log2 normalized fluorescence |
| CCGGCTGATGCTGAGTATTAATAGCTAAGATTACTATATCGACG | 0.00915 log2 normalized fluorescence |
| CCGGCTGAACTCGGGTATTAATAGCTAAGATTACTATATCGACG | -0.618 log2 normalized fluorescence |
| CCGGCTGAAGAGAGGTATTAATAGCTAAGATTACTATATCGACG | -0.631 log2 normalized fluorescence |

State the recorded binding signal for every item in the following list.
1. CCGGCTGACACGTGACATTAATAGCTAAGATTACTATATCGACG
2. CCGGCTGACACGTTACATTAATAGCTAAGATTACTATATCGACG
3. CCGGCTGATTGGATGTATTAATAGCTAAGATTACTATATCGACG
4. CCGGCTGACCCAGTGTATTAATAGCTAAGATTACTATATCGACG

Solution:
1. 3.44 log2 normalized fluorescence
2. 3.06 log2 normalized fluorescence
3. -0.659 log2 normalized fluorescence
4. -0.0826 log2 normalized fluorescence

State the recorded binding signal for every item in the following list.
1. CCGGCTGACCTGATGTATTAATAGCTAAGATTACTATATCGACG
2. CCGGCTGAGACACGGTATTAATAGCTAAGATTACTATATCGACG

Solution:
1: 0.381 log2 normalized fluorescence; 2: 0.481 log2 normalized fluorescence

---

Molecular target: MAX:MAX (p21) (human, UniProt P61244-2 1-151)
Assay: protein-binding microarray (anti-MAX antibody); PBM: 15 mM Tris-HCl pH 7.5, 100 mM KCl, 0.075% NP40, 7.5 mM beta-mercaptoethanol, 375 ng/ul BSA, 8 ng/ul poly(dA-dT):(dA-dT), 550 ng complex, 60 min, room tempe; high values mean tight binding
Settings: protein: recombinant; tags: 6xHis; chain copies: 2; label: 3' end of printed strand (linker) attached to glass slide; dsDNA, one strand shown
In all, about 4,500 sequences were measured (“log2 normalized fluorescence”: median about -0.34, highest 2% from about 3.3 on). The sample holds the highest values, similar sequences and a random draw of the others, so the mix is not that of the screen.
experimental endpoint: binding signal

Some solved cases for reference:
| macromolecule sequence | tested target | result |
| --- | --- | --- |
| CCGGCTAACACGCGGTATTAATAGCTAAGATTACTATATCGACG | MAX:MAX (p21) (human, UniProt P61244-2 1-151) | 3.35 log2 normalized fluorescence |
| CCGGCTGACACGCGGTATTAATAGCTAAGATTACTATATCGACG | MAX:MAX (p21) (human, UniProt P61244-2 1-151) | 3.1 log2 normalized fluorescence |
| CCGGCTGACTAGGCGTATTAATAGCTAAGATTACTATATCGACG | MAX:MAX (p21) (human, UniProt P61244-2 1-151) | -0.638 log2 normalized fluorescence |
| CCGGCTGATACCTGGTGTTAATAGCTAAGATTACTATATCGACG | MAX:MAX (p21) (human, UniProt P61244-2 1-151) | -0.298 log2 normalized fluorescence |
| CCGGCCTACACGTGGTGTTAATAGCTAAGATTACTATATCGACG | MAX:MAX (p21) (human, UniProt P61244-2 1-151) | 3.19 log2 normalized fluorescence |
| CCGGCTTTCACATGGTATTAATAGCTAAGATTACTATATCGACG | MAX:MAX (p21) (human, UniProt P61244-2 1-151) | 3.34 log2 normalized fluorescence |
| CCGGCAAACACGTGGTATTAATAGCTAAGATTACTATATCGACG | MAX:MAX (p21) (human, UniProt P61244-2 1-151) | 3.01 log2 normalized fluorescence |
| CCGGCTGAACGTTGGTATTAATAGCTAAGATTACTATATCGACG | MAX:MAX (p21) (human, UniProt P61244-2 1-151) | 0.152 log2 normalized fluorescence |

State the recorded binding signal for every item in the following list.
1. CCGGCTGACGTACAGTATTAATAGCTAAGATTACTATATCGACG
2. CCGGCTGACGTGTCGTATTAATAGCTAAGATTACTATATCGACG
3. CCGGCTTAATCGTGGTATTAATAGCTAAGATTACTATATCGACG
4. CCGGCTGACGTATCGTATTAATAGCTAAGATTACTATATCGACG

Solution:
1: -0.0346 log2 normalized fluorescence; 2: 1.07 log2 normalized fluorescence; 3: 1.43 log2 normalized fluorescence; 4: -0.167 log2 normalized fluorescence
